Data provenance: patent US20190315886A1

target: human thrombin with His tag (human, UniProt P00734 328-622); experiment: Biacore; reference h1601-008
readout: Fold of Affinity relative to h1601-008 (fold)
The figure you give is taken to be in fold; do not add the unit.

Data request: // Fold of Affinity relative to h1601-008 lookup, key: aTM-1 (antibody, V domains shown) VH: EVQLVESGGGLVQPGGSLRLSCAASGFTFSDYYMAWVRQAPGKGLEWVSNINSDGSSTYYLDSLKSRFTISRDNSKNTLYLQMNSLKAEDTAVYYCARDHYIGASYVFDYWGQGTTVTVSS VL: DIQMTQSPSSLSASVGDRVTITCKASEDIYNRLAWYQQKPGKAPRLIISGATSLETGVPSRFSGSGSGKDYTLTISSLQPEDFATYYCQQYWSTPWTFGGGTKVEIK
Data returned: 40.7

Data request: Return reported Fold of Affinity relative to h1601-008; argument: aTM-4 (antibody, V domains shown) VH: EVQLVESGGGLVQPGGSLRLSCAASGFTFSDYYMAWVRQAPGKGLEWVSNINSDGSSTYYLDSLKSRFTISRDNSKNTLYLQMNSLKAEDTAVYYCARDHYLGNSYVFDLWGQGTTVTVSS VL: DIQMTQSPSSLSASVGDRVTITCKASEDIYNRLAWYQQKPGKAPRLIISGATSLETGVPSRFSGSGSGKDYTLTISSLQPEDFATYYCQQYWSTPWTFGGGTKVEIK
Data returned: 54

Data request: Recorded Fold of Affinity relative to h1601-008 for humanized antibody h1601-008 (antibody, human IgG4 S228P, kappa, V domains shown) VH: EVQLVESGGGLVQPGGSLRLSCAASGFTFSDYYMAWVRQAPGKGLEWVSNINSDGSSTYYLDSLKSRFTISRDNSKNTLYLQMNSLKAEDTAVYYCARDHYHGNSYVFDYWGQGTTVTVSS VL: DIQMTQSPSSLSASVGDRVTITCKASEDIYNRLAWYQQKPGKAPRLIISGATSLETGVPSRFSGSGSGKDYTLTISSLQPEDFATYYCQQYWSTPWTFGGGTKVEIKR , please?
Data returned: 1

Data request: Field request: Fold of Affinity relative to h1601-008 | item: aTM-2 (antibody, V domains shown) VH: EVQLVESGGGLVQPGGSLRLSCAASGFTFSDYYMAWVRQAPGKGLEWVSNINSDGSSTYYLDSLKSRFTISRDNSKNTLYLQMNSLKAEDTAVYYCARDHYLGNSYVFDSWGQGTTVTVSS VL: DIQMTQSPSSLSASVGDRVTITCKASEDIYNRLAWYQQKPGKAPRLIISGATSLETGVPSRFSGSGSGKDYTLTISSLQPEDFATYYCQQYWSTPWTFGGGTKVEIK
Data returned: 86.5
